# viability at 48 h, 50 µg/ml values compiled below
experiment: MTT cytotoxicity assay, HTC-116
Assay type: cell-based, human
run_conditions: human, HTC-116 cells (human colorectal carcinoma), HTC-116, 50 ug/ml, 48 h, read-out: % Cell viability
Procedure: The assessment of cytotoxicity for the methanolic extract and isolated flavonoids was performed under controlled and sterile conditions within a Class II A2 Laminar flow biosafety cabinet. […] The effectiveness of the extract was compared to that of the reference drug, Doxorubicin. The percentage of cell viability was calculated by taking the ratio of the absorbance of the plant extract to that of the control, multiplied by 100. […]

>>> result("COc1cccc2c1C(=O)c1c(O)c3c(c(O)c1C2=O)C[C@@](O)(C(=O)CO)C[C@@H]3O[C@H]1C[C@H](N)[C@H](O)[C@H](C)O1 [Doxorubicin, reference compound]")
"30%"

Here is the next item to consider.
IN: Any idea what viability at 48 h, 50 µg/ml was measured for COc1c(O)cc2oc(-c3ccccc3)c(OC)c(=O)c2c1O [5,7-Dihydroxy-3,6-dimethoxyflavone] ?
OUT: 35.1%
